measuredOn: RIPK1 (human)
protocolDescription: KINOMEscan competition binding
conditionContext: compound 10.0 µM
Answer each item with its documented kinase still bound, per cent of control.
Give bare numbers, in %.

Recorded kinase still bound, per cent of control, per entry:
In [3]: df
Out[3]:
                            smilesstructure     measuredon  observed
0  O=c1[nH]c2ccccc2n1C1CCN(Cc2ccc(-c3nc4cc5[nH]cnc5cc4nc3-c3ccccc3)cc2)CC1  RIPK1 (human)       100
1  CCc1nc(-c2cccc(C)c2)c(-c2ccnc(NC(=O)c3ccccc3)c2)s1  RIPK1 (human)        95
2  N#Cc1cc(-c2ccnc(Nc3ccc(-n4cnc(-c5cccnc5)n4)cc3)n2)cc(N2CCOCC2)c1  RIPK1 (human)       7.8

Proceeding to the next compound to report its kinase still bound, per cent of control.
Bench note: what kinase still bound, per cent of control did `COc1ccc(N(C(=O)Oc2cc(C(=O)Nc3cccc(C(F)(F)F)c3)ccc2C)c2ccnc(Nc3ccc(N4CCN(C)CC4)cc3)n2)c(OC)c1` show?
100

----------
measuredOn: NEK6 (human)
protocolDescription: KINOMEscan competition binding
conditionContext: compound 10.0 µM
Simple rule here: kinase still bound, per cent of control less than 90% is condition met, otherwise condition not met.

In [3]: df
Out[3]:
                            compound   qualitativelabel
0  COc1cc2ncnc(Nc3cccc(Cl)c3)c2cc1OC  condition not met

Criterion: kinase still bound, per cent of control strictly below 90%. Is it met by COc1cc(C)c(Sc2cnc(NC(=O)c3ccc(CNC(C)C(C)C)cc3)s2)cc1C(=O)N1CCN(C(C)=O)CC1 (stereo not drawn) ?
condition met

Criterion: kinase still bound, per cent of control strictly below 90%. Is it met by `N#Cc1cc(-c2ccnc(Nc3ccc(-n4cnc(-c5cccnc5)n4)cc3)n2)cc(N2CCOCC2)c1` ?
condition met

Criterion: kinase still bound, per cent of control strictly below 90%. Is it met by CC1=C(C(=O)Nc2cc3cn[nH]c3cc2F)C(c2ccc(C(F)(F)F)cc2)CC(=O)N1 (stereo not drawn) ?
condition met

Criterion: kinase still bound, per cent of control strictly below 90%. Is it met by `C=CC(=O)Nc1ccc(C(=O)c2sc(Nc3ccc(N4CCN(C)CC4)cc3OC)nc2N)cc1` ?
condition met

Criterion: kinase still bound, per cent of control strictly below 90%. Is it met by `N#C/C(=C1/Nc2ccccc2S1)c1ccnc(NCCc2cccnc2)n1` ?
condition not met

Criterion: kinase still bound, per cent of control strictly below 90%. Is it met by `Cc1cn(-c2cc(C(=O)Nc3ccc(C)c(NC(=O)c4ccno4)c3)cc(C(F)(F)F)c2)cn1` ?
condition not met

----------
measuredOn: PDGFRB (human) (UniProt P09619)
Sequence (P09619 whole entry, looked up): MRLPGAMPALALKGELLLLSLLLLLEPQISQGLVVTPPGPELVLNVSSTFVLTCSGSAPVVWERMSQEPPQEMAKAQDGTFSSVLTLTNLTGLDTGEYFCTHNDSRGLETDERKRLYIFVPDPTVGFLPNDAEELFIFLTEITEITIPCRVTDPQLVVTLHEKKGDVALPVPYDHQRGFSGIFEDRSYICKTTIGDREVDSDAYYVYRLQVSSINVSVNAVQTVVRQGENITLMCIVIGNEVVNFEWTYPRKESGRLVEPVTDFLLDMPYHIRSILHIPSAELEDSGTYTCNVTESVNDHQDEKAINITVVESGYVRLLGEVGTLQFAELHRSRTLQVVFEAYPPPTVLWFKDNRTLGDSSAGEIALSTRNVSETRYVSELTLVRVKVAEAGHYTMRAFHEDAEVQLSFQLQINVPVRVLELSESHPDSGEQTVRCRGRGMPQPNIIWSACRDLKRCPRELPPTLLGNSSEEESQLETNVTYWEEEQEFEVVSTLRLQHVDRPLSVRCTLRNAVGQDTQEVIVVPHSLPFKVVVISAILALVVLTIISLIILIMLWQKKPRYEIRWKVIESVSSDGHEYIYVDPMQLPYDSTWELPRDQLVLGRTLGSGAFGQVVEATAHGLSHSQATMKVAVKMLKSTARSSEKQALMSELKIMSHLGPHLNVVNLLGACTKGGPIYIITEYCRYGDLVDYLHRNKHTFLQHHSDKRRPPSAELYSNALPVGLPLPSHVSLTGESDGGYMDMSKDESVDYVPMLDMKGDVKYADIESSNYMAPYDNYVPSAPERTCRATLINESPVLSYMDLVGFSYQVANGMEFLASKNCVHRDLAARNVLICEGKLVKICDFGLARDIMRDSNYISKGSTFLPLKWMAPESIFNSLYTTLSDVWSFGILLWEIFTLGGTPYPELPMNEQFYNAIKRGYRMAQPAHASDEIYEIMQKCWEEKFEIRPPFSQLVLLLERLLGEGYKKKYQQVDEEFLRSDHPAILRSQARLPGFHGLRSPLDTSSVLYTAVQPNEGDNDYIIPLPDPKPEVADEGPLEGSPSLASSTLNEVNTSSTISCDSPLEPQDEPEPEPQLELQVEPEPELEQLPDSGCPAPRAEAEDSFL
protocolDescription: KINOMEscan competition binding
conditionContext: compound 10.0 µM
experimentalReadout: kinase still bound, per cent of control (%)
Give bare numbers, in %.

Please look at the items below and tell me kinase still bound, per cent of control for each one, in order.
1. CC(=O)c1c(C)c2cnc(Nc3ccc(N4CCNCC4)cn3)nc2n(C2CCCC2)c1=O
2. O=c1[nH]c2ccccc2n1C1CCN(Cc2ccc(-c3nc4cc5[nH]cnc5cc4nc3-c3ccccc3)cc2)CC1
3. CCN(CCO)CCCOc1ccc2c(Nc3cc(CC(=O)Nc4cccc(F)c4)[nH]n3)ncnc2c1

29
72
0

----------
measuredOn: EGFR (human) (UniProt P00533)
Sequence (P00533 whole entry, looked up): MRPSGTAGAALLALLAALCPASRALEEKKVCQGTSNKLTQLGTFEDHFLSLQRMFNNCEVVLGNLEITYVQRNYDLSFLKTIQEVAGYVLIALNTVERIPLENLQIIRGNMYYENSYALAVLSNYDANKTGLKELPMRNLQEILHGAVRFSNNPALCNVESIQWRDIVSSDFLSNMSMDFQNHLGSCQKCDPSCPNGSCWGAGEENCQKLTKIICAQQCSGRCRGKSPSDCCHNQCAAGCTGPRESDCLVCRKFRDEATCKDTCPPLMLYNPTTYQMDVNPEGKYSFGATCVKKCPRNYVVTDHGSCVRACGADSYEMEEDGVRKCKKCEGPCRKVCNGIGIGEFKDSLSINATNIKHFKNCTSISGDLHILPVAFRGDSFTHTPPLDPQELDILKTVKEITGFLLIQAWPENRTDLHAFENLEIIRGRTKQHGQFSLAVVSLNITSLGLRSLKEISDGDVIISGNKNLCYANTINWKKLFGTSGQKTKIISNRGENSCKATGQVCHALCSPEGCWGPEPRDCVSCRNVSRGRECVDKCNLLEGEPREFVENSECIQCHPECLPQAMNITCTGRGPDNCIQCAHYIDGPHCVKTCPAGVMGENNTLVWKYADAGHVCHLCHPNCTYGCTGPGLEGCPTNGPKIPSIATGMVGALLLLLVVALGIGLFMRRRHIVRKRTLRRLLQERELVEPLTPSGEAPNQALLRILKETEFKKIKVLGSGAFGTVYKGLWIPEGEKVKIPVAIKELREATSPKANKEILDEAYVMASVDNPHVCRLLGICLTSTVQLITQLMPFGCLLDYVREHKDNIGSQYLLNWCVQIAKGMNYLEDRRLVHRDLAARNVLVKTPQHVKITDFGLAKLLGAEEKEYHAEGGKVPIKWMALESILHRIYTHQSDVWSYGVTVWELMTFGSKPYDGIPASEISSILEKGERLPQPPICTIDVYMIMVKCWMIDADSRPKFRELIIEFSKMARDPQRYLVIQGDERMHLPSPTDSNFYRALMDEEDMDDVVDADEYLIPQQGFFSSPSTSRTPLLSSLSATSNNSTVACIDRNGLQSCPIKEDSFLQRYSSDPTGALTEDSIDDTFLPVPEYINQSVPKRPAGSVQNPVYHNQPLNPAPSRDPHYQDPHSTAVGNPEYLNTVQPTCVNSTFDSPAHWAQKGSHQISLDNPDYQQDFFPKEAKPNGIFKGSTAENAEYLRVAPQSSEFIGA
protocolDescription: KINOMEscan competition binding
conditionContext: compound 10.0 µM
Simple rule here: kinase still bound, per cent of control less than 80% is yes (1), otherwise no (0).

Observe how each entry below is paired with its result.
In [3]: df
Out[3]:
                                   molecule  qualitativelabel
0  O=c1[nH]c2ccccc2n1C1CCN(Cc2ccc(-c3nc4cc5[nH]cnc5cc4nc3-c3ccccc3)cc2)CC1           yes (1)
1  CCCS(=O)(=O)Nc1ccc(F)c(C(=O)c2c[nH]c3ncc(Cl)cc23)c1F           yes (1)
2         COc1cc2ncnc(Nc3cccc(Cl)c3)c2cc1OC           yes (1)
3  CCN1CCN(Cc2ccc(NC(=O)c3ccc(C)c(/C=C/c4cnc5[nH]ccc5c4OC)c3)cc2C(F)(F)F)CC1           yes (1)
4  CCOc1cc(N2CCC(O)CC2)ccc1Nc1ncc2c(n1)N(C)c1ccccc1C(=O)N2C            no (0)

Criterion: kinase still bound, per cent of control strictly below 80%. Is it met by COc1cc(C)c(Sc2cnc(NC(=O)c3ccc(CNC(C)C(C)C)cc3)s2)cc1C(=O)N1CCN(C(C)=O)CC1 (stereo unspecified) ?
no (0)

----------
Answer each item with its documented kinase still bound, per cent of control.
measuredOn: FLT1 (human) (UniProt P17948)
Sequence (P17948 whole entry, looked up): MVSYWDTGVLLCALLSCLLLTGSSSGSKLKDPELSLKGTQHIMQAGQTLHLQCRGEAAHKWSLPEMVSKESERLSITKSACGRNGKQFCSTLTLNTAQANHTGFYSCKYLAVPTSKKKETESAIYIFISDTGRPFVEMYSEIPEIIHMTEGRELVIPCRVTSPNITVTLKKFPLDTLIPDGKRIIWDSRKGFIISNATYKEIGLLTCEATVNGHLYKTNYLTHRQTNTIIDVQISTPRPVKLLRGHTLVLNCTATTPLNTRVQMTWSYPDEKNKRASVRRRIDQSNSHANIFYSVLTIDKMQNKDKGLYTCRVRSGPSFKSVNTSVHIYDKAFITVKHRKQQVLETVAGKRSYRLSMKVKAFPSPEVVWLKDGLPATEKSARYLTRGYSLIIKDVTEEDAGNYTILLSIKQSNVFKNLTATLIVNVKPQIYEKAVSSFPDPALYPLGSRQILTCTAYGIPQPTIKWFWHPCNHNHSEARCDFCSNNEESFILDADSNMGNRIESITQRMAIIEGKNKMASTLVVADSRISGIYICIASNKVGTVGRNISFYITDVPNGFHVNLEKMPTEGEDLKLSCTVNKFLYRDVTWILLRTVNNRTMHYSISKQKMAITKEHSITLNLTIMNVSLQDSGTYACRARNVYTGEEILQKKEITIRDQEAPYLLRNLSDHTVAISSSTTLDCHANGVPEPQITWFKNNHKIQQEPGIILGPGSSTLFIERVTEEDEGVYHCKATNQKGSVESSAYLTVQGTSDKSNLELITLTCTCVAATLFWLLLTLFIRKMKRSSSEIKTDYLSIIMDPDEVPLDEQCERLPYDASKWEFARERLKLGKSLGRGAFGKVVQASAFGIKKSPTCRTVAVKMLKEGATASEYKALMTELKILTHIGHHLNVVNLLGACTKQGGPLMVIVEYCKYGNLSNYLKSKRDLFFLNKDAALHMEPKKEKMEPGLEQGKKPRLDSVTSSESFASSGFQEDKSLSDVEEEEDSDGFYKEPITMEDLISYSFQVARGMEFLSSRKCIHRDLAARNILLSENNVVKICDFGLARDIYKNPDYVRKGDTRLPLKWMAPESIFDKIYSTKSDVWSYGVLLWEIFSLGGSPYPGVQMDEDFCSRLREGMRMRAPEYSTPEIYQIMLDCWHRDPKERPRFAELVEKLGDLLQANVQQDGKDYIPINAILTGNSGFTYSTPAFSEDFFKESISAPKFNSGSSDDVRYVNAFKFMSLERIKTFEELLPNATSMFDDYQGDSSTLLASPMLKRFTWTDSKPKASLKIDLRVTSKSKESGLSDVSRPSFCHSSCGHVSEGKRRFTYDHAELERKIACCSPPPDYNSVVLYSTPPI
protocolDescription: KINOMEscan competition binding
conditionContext: compound 10.0 µM
Answers are plain numbers, in %.

>>> print(df.to_string())
                                   molecule                      experimentalreadout  observed
0  CCc1nc(-c2cccc(C)c2)c(-c2ccnc(NC(=O)c3ccccc3)c2)s1  kinase still bound, per cent of control        31
1  COc1ccc(N(C(=O)Oc2cc(C(=O)Nc3cccc(C(F)(F)F)c3)ccc2C)c2ccnc(Nc3ccc(N4CCN(C)CC4)cc3)n2)c(OC)c1  kinase still bound, per cent of control       1.2
2         COc1cc2ncnc(Nc3cccc(Cl)c3)c2cc1OC  kinase still bound, per cent of control        75

Please look at the items below and tell me kinase still bound, per cent of control for each one, in order.
1. C=CC(=O)Nc1ccc(C(=O)c2sc(Nc3ccc(N4CCN(C)CC4)cc3OC)nc2N)cc1
2. COc1cc(N2CCC(C(N)=O)CC2)ccc1Nc1nc(N)c(Cl)c(Nc2ccccc2S(=O)(=O)C(C)C)n1
3. Cc1cn(-c2cc(C(=O)Nc3ccc(C)c(NC(=O)c4ccno4)c3)cc(C(F)(F)F)c2)cn1

1: 97; 2: 100; 3: 100

Please look at the items below and tell me kinase still bound, per cent of control for each one, in order.
1. CC1=C(C(=O)Nc2cc3cn[nH]c3cc2F)C(c2ccc(C(F)(F)F)cc2)CC(=O)N1 (stereo not drawn)
2. CCN1CCN(Cc2ccc(NC(=O)c3ccc(C)c(/C=C/c4cnc5[nH]ccc5c4OC)c3)cc2C(F)(F)F)CC1
3. CCCS(=O)(=O)Nc1ccc(F)c(C(=O)c2c[nH]c3ncc(Cl)cc23)c1F
4. COc1cc(C)c(Sc2cnc(NC(=O)c3ccc(CNC(C)C(C)C)cc3)s2)cc1C(=O)N1CCN(C(C)=O)CC1 (stereo not drawn)
5. O=c1[nH]c2ccccc2n1C1CCN(Cc2ccc(-c3nc4cc5[nH]cnc5cc4nc3-c3ccccc3)cc2)CC1
6. N#Cc1cc(-c2ccnc(Nc3ccc(-n4cnc(-c5cccnc5)n4)cc3)n2)cc(N2CCOCC2)c1
7. CCN(CCO)CCCOc1ccc2c(Nc3cc(CC(=O)Nc4cccc(F)c4)[nH]n3)ncnc2c1
8. CNC(=O)Nc1ccc(-c2nc(N3CC4CCC(C3)O4)c3cnn(C4CCC5(CC4)OCCO5)c3n2)cc1

1. 77
2. 2.4
3. 28
4. 100
5. 89
6. 48
7. 1
8. 92

Please look at the items below and tell me kinase still bound, per cent of control for each one, in order.
1. N#C/C(=C1/Nc2ccccc2S1)c1ccnc(NCCc2cccnc2)n1
2. CC(=O)c1c(C)c2cnc(Nc3ccc(N4CCNCC4)cn3)nc2n(C2CCCC2)c1=O
3. COc1cc2c(Nc3ccc(NC(=O)c4ccccc4)cc3)ncnc2cc1OCCCN1CCOCC1
4. CCOc1cc(N2CCC(O)CC2)ccc1Nc1ncc2c(n1)N(C)c1ccccc1C(=O)N2C

[100, 100, 56, 100]

----------
Answer each item with its documented kinase still bound, per cent of control.
measuredOn: UniProtKB Q9NRH2
Sequence (Q9NRH2 whole entry, looked up): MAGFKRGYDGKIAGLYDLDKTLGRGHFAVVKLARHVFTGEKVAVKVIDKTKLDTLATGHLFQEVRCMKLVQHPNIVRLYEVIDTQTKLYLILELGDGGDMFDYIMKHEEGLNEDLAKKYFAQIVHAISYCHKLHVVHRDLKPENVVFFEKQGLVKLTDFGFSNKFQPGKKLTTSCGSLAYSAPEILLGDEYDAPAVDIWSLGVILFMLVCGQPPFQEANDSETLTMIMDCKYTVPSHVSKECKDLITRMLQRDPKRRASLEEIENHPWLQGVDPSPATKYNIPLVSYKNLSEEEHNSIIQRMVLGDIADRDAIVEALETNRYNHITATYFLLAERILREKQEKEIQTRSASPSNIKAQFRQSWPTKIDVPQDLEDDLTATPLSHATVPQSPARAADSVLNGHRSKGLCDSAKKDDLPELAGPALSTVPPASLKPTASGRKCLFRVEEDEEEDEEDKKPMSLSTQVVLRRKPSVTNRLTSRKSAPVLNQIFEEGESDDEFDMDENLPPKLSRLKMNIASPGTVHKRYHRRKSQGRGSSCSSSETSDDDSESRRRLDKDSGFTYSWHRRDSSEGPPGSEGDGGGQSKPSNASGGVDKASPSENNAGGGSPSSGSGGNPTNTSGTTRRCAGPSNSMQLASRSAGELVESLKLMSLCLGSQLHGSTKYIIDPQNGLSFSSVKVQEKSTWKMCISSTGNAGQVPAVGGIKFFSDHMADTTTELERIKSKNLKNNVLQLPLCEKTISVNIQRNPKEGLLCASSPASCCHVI
protocolDescription: KINOMEscan competition binding
conditionContext: compound 10.0 µM
Give bare numbers, in %.

Recorded kinase still bound, per cent of control, per entry:
                                   compound                      experimentalreadout  observed
0  CCCS(=O)(=O)Nc1ccc(F)c(C(=O)c2c[nH]c3ncc(Cl)cc23)c1F  kinase still bound, per cent of control       100
1  COc1cc2c(Nc3ccc(NC(=O)c4ccccc4)cc3)ncnc2cc1OCCCN1CCOCC1  kinase still bound, per cent of control        81
2  O=c1[nH]c2ccccc2n1C1CCN(Cc2ccc(-c3nc4cc5[nH]cnc5cc4nc3-c3ccccc3)cc2)CC1  kinase still bound, per cent of control        91
3  N#C/C(=C1/Nc2ccccc2S1)c1ccnc(NCCc2cccnc2)n1  kinase still bound, per cent of control       2.7
4  CC(=O)c1c(C)c2cnc(Nc3ccc(N4CCNCC4)cn3)nc2n(C2CCCC2)c1=O  kinase still bound, per cent of control        94
5  CCN1CCN(Cc2ccc(NC(=O)c3ccc(C)c(/C=C/c4cnc5[nH]ccc5c4OC)c3)cc2C(F)(F)F)CC1  kinase still bound, per cent of control        95

Please look at the items below and tell me kinase still bound, per cent of control for each one, in order.
1. CC1=C(C(=O)Nc2cc3cn[nH]c3cc2F)C(c2ccc(C(F)(F)F)cc2)CC(=O)N1 (centres undefined)
2. C=CC(=O)Nc1ccc(C(=O)c2sc(Nc3ccc(N4CCN(C)CC4)cc3OC)nc2N)cc1
3. CCc1nc(-c2cccc(C)c2)c(-c2ccnc(NC(=O)c3ccccc3)c2)s1

1. 100
2. 0.2
3. 100
